Origin of the recorded values: PubChem BioAssay

Target: 6-phosphogluconate dehydrogenase, decarboxylating (Homo sapiens)
Assay: inhibition of human phosphogluconate dehydrogenase – biochemical, recombinant enzyme, NADPH absorbance, primary screen (AID 1159550)
Settings: recombinant 6PGD, NADPH absorbance 341 nm; at 10 µM; stronger effect = higher value
For each entry below, report its inhibition value.
The response must be a number in % with no trailing unit.

inhibition recorded for this compound, CCN(CC)CCOC(=O)C(Cc1cccc2ccccc12)CC1CCCO1 (stereo unspecified) , is -4.35

inhibition recorded for this compound, CN(C)c1ccc(C(=C2C=CC(=[N+](C)C)C=C2)c2ccc(N(C)C)cc2)cc1 , is 5.37

inhibition recorded for this compound, O=C(c1ccc(F)cc1)C1CCN(CCn2c(=O)[nH]c3ccccc3c2=O)CC1 , is 8.02

inhibition recorded for this compound, CC1(C)S[C@@H]2[C@H](NC(=O)C(C(=O)O)c3ccccc3)C(=O)N2[C@H]1C(=O)O (stereo partly specified) , is -9.55

inhibition recorded for this compound, Cc1oncc1C(=O)Nc1ccc(C(F)(F)F)cc1 , is -7

inhibition recorded for this compound, Cn1cnc2c1c(=O)[nH]c(=O)n2C , is -1.33

inhibition recorded for this compound, NC(=O)c1ccccc1O , is -8.81

inhibition recorded for this compound, Clc1ccc(C(c2ccccc2Cl)C(Cl)Cl)cc1 (stereo unspecified) , is 5.07

inhibition recorded for this compound, CNC[C@H](O)c1cccc(O)c1 , is 10.8

inhibition recorded for this compound, Nc1ccc(C(=O)NCC(=O)O)cc1 , is -8.81

inhibition recorded for this compound, CC(C)(Sc1cc(C(C)(C)C)c(O)c(C(C)(C)C)c1)Sc1cc(C(C)(C)C)c(O)c(C(C)(C)C)c1 , is 6.05

inhibition recorded for this compound, CN(C)/N=N/c1nc[nH]c1C(N)=O , is -2.23

inhibition recorded for this compound, C[C@H]1c2cccc(O)c2C(O)=C2C(=O)[C@]3(O)C(O)=C(C(N)=O)C(=O)[C@@H](N(C)C)[C@@H]3[C@@H](O)[C@@H]21 , is 9.31

inhibition recorded for this compound, CCCOc1ccccc1-c1nc2n[nH]nc2c(=O)[nH]1 , is -4.08

inhibition recorded for this compound, CNC1(C)C2CCC(C2)C1(C)C (stereo unspecified) , is -9.67

inhibition recorded for this compound, CCN(CC)CCNC(=O)c1ccc(NC(C)=O)cc1 , is 3.51

inhibition recorded for this compound, CCCCN(CCCC)CCCOC(=O)c1ccc(N)cc1 , is -3.82

inhibition recorded for this compound, CC(=O)Nc1ccccc1 , is -5.03

inhibition recorded for this compound, COC(=O)[C@@H](N)CS , is 3.23

inhibition recorded for this compound, C=C[C@@]1(C)CC(=O)[C@]2(O)[C@@]3(C)[C@@H](O)CCC(C)(C)[C@@H]3[C@H](O)[C@H](OC(C)=O)[C@@]2(C)O1 , is 14.7

inhibition recorded for this compound, O=c1c(-c2ccc(O)cc2)coc2cc(O)cc(O)c12 , is 3.56

inhibition recorded for this compound, COc1ccc(NS(=O)(=O)c2ccc(N)cc2)nn1 , is -7.32

inhibition recorded for this compound, C[N+](C)(C)CCOC(N)=O , is -13.5

inhibition recorded for this compound, Oc1c(I)cc(I)c2cccnc12 , is -4.02

inhibition recorded for this compound, C[C@](N)(Cc1ccc(O)c(O)c1)C(=O)O , is -6.99

inhibition recorded for this compound, O=c1ccc2ccccc2o1 , is -18.6

inhibition recorded for this compound, C/C=C(/C(=C/C)c1ccc(O)cc1)c1ccc(O)cc1 , is 15.9

inhibition recorded for this compound, COC(=O)N/N=C/c1c[n+]([O-])c2ccccc2[n+]1[O-] , is 11.2

inhibition recorded for this compound, Nc1c2ccccc2nc2ccccc12 , is -6.58

inhibition recorded for this compound, CC(=O)Nc1c(I)cc(I)c(C(=O)O)c1I , is -3.44

inhibition recorded for this compound, CN1CCN(C2=Nc3ccccc3Oc3ccc(Cl)cc32)CC1 , is -14

inhibition recorded for this compound, Nc1ncnc2c1ncn2[C@@H]1O[C@H](CO)[C@@H](O)[C@H]1O , is 2.2

inhibition recorded for this compound, O=C1c2ccccc2C(=O)C1c1ccccc1 , is 8.94

inhibition recorded for this compound, CCCC(C(=O)OCCN(CC)CC)(c1ccccc1)c1ccccc1 , is 3.92

inhibition recorded for this compound, Cc1c(NC(=O)c2cccnc2)c(=O)n(-c2ccccc2)n1C , is -15.8

inhibition recorded for this compound, NC(N)=Nc1nc(CSCC/C(N)=N/S(N)(=O)=O)cs1 , is 5.97

inhibition recorded for this compound, CN1CCN(CCCN2c3ccccc3Sc3ccc(Cl)cc32)CC1 , is 5.8

inhibition recorded for this compound, CC(C)(C)CC(C)(C)c1ccc(O)c(Cc2ccc(Cl)cc2Cl)c1 , is -15.2

inhibition recorded for this compound, Nc1ccc(C(=O)O)cc1 , is 6.16

inhibition recorded for this compound, CN(C)CCCN1c2ccccc2Sc2ccccc21 , is 6.03

inhibition recorded for this compound, CC(C)COCC(CN(Cc1ccccc1)c1ccccc1)N1CCCC1 (stereo unspecified) , is 1.94

inhibition recorded for this compound, O=C(OCC(O)CO)c1ccccc1Nc1ccnc2cc(Cl)ccc12 (stereo unspecified) , is 11.2

inhibition recorded for this compound, Nc1ncnc2nc[nH]c12 , is 2.63

inhibition recorded for this compound, NC(CO)C(=O)NNCc1ccc(O)c(O)c1O (stereo unspecified) , is -10.3

inhibition recorded for this compound, CC(=O)Nc1ccc(O)cc1 , is 13.8

inhibition recorded for this compound, Cc1nc2sccn2c(=O)c1CCN1CCC(=C(c2ccc(F)cc2)c2ccc(F)cc2)CC1 , is 13.5

inhibition recorded for this compound, CCOC(N)=O , is -22.6

inhibition recorded for this compound, COc1ccc(C2C(=O)c3ccccc3C2=O)cc1 , is -16

inhibition recorded for this compound, CCN(CC)C(=O)c1cccc(C)c1 , is 9.21

inhibition recorded for this compound, CN(C)C(=O)Oc1cccc([N+](C)(C)C)c1 , is -2.26

inhibition recorded for this compound, O=C1c2cccc(O)c2C(=O)c2c(O)cccc21 , is -6.73

----------
For each entry below, report its normalised cell number value.
Assay: EMT-state selective cytotoxicity in co-culture – imaging, PC-3E GFP, TEM4-18 mCherry, primary screen (AID 1345086);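 further: cells exposed to compound for 72 h before imaging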
Settings: PC-3E GFP / TEM4-18 mCherry co-culture, imaging cell counts; measured here: mesenchymal TEM4-18 mCherry cell survival; at 1 µM

normalised cell number recorded for this molecule, Cc1[nH]c(=O)c(C#N)cc1-c1ccncc1 , is 1.26

normalised cell number recorded for this molecule, OCc1cc(C(O)CNCCCCCCOCCCCc2ccccc2)ccc1O (stereo unspecified) , is 0.97

normalised cell number recorded for this molecule, C[C@](N)(Cc1ccc(O)c(O)c1)C(=O)O , is 1.03

normalised cell number recorded for this molecule, CC(C)(Sc1cc(C(C)(C)C)c(O)c(C(C)(C)C)c1)Sc1cc(C(C)(C)C)c(O)c(C(C)(C)C)c1 , is 1.16

normalised cell number recorded for this molecule, CCCCCCc1ccc(O)cc1O , is 0.96

normalised cell number recorded for this molecule, Cc1oncc1C(=O)Nc1ccc(C(F)(F)F)cc1 , is 0.99

normalised cell number recorded for this molecule, CC1=CC(=O)c2ccccc2C1=O , is 1.08

normalised cell number recorded for this molecule, CC(=O)N(O)CCCCCNC(=O)CCC(=O)N(O)CCCCCNC(=O)CCC(=O)N(O)CCCCCN , is 1.67

normalised cell number recorded for this molecule, CC(C(=O)O)c1ccc2c(c1)[nH]c1ccc(Cl)cc12 (stereo unspecified) , is 1.54

normalised cell number recorded for this molecule, C=Cc1c(C)c2cc3[nH]c(cc4nc(cc5nc(cc1[nH]2)C(C)=C5CCC(=O)O)C(CCC(=O)O)=C4C)c(C)c3C=C , is 0.95

normalised cell number recorded for this molecule, CCCCCN(CCCCC)C(=O)C(CCC(=O)O)NC(=O)c1ccc(Cl)c(Cl)c1 (stereo unspecified) , is 0.9

----------
Target: 6-phosphogluconate dehydrogenase, decarboxylating (Homo sapiens) (UniProt P52209)
Sequence (P52209 whole entry, looked up): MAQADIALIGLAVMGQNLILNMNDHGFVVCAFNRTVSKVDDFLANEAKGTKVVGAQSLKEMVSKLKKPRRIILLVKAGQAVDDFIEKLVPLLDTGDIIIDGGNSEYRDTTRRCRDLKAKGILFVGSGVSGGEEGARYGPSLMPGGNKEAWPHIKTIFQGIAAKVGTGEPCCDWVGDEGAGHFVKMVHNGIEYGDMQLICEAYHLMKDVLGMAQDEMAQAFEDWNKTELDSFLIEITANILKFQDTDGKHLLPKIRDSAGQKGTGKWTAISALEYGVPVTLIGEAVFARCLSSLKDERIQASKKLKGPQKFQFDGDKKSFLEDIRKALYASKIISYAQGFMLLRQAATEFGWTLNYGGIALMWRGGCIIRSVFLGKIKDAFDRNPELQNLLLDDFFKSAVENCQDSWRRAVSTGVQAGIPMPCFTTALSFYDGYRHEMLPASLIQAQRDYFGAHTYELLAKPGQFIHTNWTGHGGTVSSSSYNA
Assay: inhibition of human phosphogluconate dehydrogenase – biochemical, recombinant enzyme, NADPH absorbance, primary screen (AID 1159550)
Settings: recombinant 6PGD, NADPH absorbance 341 nm; at 10 µM; stronger effect = higher value
For each entry below, report its inhibition value.
The response must be a number in % with no trailing unit.

inhibition recorded for this compound, CCCCOC(=O)c1ccc(N)cc1 , is -3.52

inhibition recorded for this compound, NS(=O)(=O)c1cc2c(cc1Cl)NC(CSCc1ccccc1)=NS2(=O)=O , is -3.14

inhibition recorded for this compound, Cc1ccc(C(=O)c2ccc(CC(=O)O)n2C)cc1 , is 9.71

inhibition recorded for this compound, Cc1c(C(=O)O)c(O)cc2c1C(=O)c1c(O)c([C@@H]3O[C@H](CO)[C@@H](O)[C@H](O)[C@H]3O)c(O)c(O)c1C2=O , is -2.65

inhibition recorded for this compound, COc1ccnc(CS(=O)c2nc3ccc(OC(F)F)cc3[nH]2)c1OC (stereo not given) , is 11.1
